conditionDescription: [M+H]+; instrument: DT; stepped-field
Below, each of the compounds is paired with its reported collision cross section (N2) value.
Number in Å², nothing else.

See these solved cases before continuing.
{"compound": "CC(=O)[C@H]1CC[C@H]2[C@@H]3CCC4=CC(=O)CC[C@]4(C)[C@H]3CC[C@]12C [Progesterone]", "collision cross section (N2) [Å²]": 186.73}
{"compound": "NC(=O)C[C@H](N)C(=O)O [L-Asparagine]", "collision cross section (N2) [Å²]": 131.54}
{"compound": "C=CC1=C(C)C(/C=c2\\[nH]/c(=C\\c3[nH]c(/C=C4\\NC(=O)C(C)=C4C=C)c(C)c3CCC(=O)O)c(CCC(=O)O)c2C)=NC1=O [Biliverdin]", "collision cross section (N2) [Å²]": 246.5}

Please report collision cross section (N2) for the following compound: Cc1cn([C@@H]2O[C@H](CO)[C@@H](O)[C@H]2O)c(=O)nc1N [5-Methylcytidine]
157.51
